target: Thymidylate synthase (Homo sapiens, UniProt P04818); assay: Competitive inhibition of the human thymidylate synthase at 600 uM as Ki(slope) of 5,10-CH2-H4PteGlu; conditions: in the assay text read “28 uM dUMP” for “600 uM”
Sequence (P04818 whole entry): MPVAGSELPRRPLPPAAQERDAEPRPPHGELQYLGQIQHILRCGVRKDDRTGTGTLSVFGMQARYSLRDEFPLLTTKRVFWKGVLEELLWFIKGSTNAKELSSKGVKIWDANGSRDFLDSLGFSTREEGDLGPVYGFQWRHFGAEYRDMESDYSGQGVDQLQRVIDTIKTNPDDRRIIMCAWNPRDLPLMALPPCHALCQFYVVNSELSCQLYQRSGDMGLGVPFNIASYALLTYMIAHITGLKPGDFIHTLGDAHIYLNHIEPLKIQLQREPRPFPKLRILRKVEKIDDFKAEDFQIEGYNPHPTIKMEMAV
Reported Endpoint: Ki (nM)
Answer format: numeric, nM implied, no suffix.

Return reported Ki for target or system Thymidylate synthase (Homo sapiens, UniProt P04818), item Nc1nc(O)c2c(n1)CCC(CNc1ccc(C(=O)NC(CCC(=O)O)C(=O)O)cc1)N2Cc1cn([C@H]2C[C@H](O)[C@@H](COP(=O)(O)O)O2)c(=O)[nH]c1=O (stereo partly specified) .
85

====

target: Thymidylate synthase (Homo sapiens, UniProt P04818); assay: Inhibition of human thymidylate synthase at 600 uM concentration of 5,10-CH2-H4PteGlu
Reported Endpoint: pIC50
pIC50 here: minus log base 10 of the concentration, concentration in moles per litre.

Using known records, supply pIC50 for Cc1nc(N)nc(O)c1N(CCNc1ccc(C(=O)NC(CCC(=O)O)C(=O)O)cc1)Cc1cn([C@H]2C[C@H](O)[C@@H](COP(=O)(O)O)O2)c(=O)[nH]c1=O (stereo partly drawn)
5.14

Using known records, supply pIC50 for Cc1nc(N)nc(O)c1N(CCN(C)c1ccc(C(=O)NC(CCC(=O)O)C(=O)O)cc1)Cc1cn([C@H]2C[C@H](O)[C@@H](COP(=O)(O)O)O2)c(=O)[nH]c1=O (stereo partly drawn)
6.00

Using known records, supply pIC50 for Nc1nc(O)c2c(n1)CCC(CNc1ccc(C(=O)NC(CCC(=O)O)C(=O)O)cc1)N2Cc1cn([C@H]2C[C@H](O)[C@@H](COP(=O)(O)O)O2)c(=O)[nH]c1=O (stereo partly drawn)
6.41
